Test: NCI Yeast Anticancer Drug Screen. Data for the bub3 strain (AID 167)
Details: S. cerevisiae bub3 mutant strain, at 50.0 µM, active compounds read high
Method: Growth inhibition of yeast strains with defined genetic alterations is measured as a screen for potential anti-cancer activity. Selected strains with alterations in DNA damage repair or cell cycle control were exposed to compounds and growth inhibition was measured relative to vehicle treated controls. The strain used in this assay is bub3
About 79,000 compounds went through this panel and 15% of them were active in at least one assay; those are over-represented in the sample as a whole.
OBSERVABLE: growth inhibition (%)
Respond numerically; units are % and should not be typed.

Task: Could you tell me which growth inhibition is on file for S=C1NCCOc2ccccc21 ?
Result: -10.9

Task: Again, but for O=C(NC1CCCCC1)c1cccnc1
Result: -14.5

Task: Repeat with Cc1ncc([N+](=O)[O-])n1CCNC(=O)CCCn1cnc([N+](=O)[O-])n1
Result: -27.9

Task: Also need COc1ccc(Nc2nc3c(N)cc(C(F)(F)F)cc3nc2-c2ccccc2)cc1OC , thanks.
Result: -18.6

Task: Next entry: CCC(=O)COC(C)=O
Result: -3.75

Task: Same for COC1OC(C)CC(O)C1O (stereo not drawn)
Result: 2.7

Task: Consider next the compound Cc1cn(C2OC3COC2C3O)c(=O)[nH]c1=O (stereo not drawn) in the same way.
Result: -6

Task: Also, COC1=CC(=O)C(=O)C=C1C(C)(C)C please.
Result: 49.4

Task: Also need CC(=O)Nc1ccc(/C=C2\N=C(c3ccccc3)OC2=O)cc1 , thanks.
Result: -10.9

Task: Next up: COc1[nH]c2ccccc2c1C=O
Result: 11

Task: Same lookup for COC(=O)NS(=O)(=O)C1=Cc2cccc3cccc1c23 , please.
Result: 6.35

Task: Now try Cc1ccc(S(=O)(=O)N/N=C2\CCC3(C)C(CCC4C3CCC3(C)C(C(C)CCCC(C)C)CCC43)C2)cc1 (stereo not drawn) .
Result: -4

Task: Cool, now N#Cc1sc2c(c1OC(=O)c1ccc(C(F)(F)F)cc1)c(=O)n(-c1ccccc1)c(=S)n2-c1ccccc1
Result: -6.2

----------
test: NCI Yeast Anticancer Drug Screen. Data for the mlh1 rad18 strain (AID 175); conditions: S. cerevisiae mlh1 rad18 strain growth inhibition; at 50.0 µM; active compounds read high
About 79,000 compounds went through this panel and 15% of them were active in at least one assay; those are over-represented in the sample as a whole. Active and inactive are the calls of the source. Cut-off read from the data, not from the text of the source: active = growth inhibition above about 70%; inactive = the rest. Where a SMILES comes first, the peptide text is derived from it. [ ]: non-standard residue; d: D form. The star is where a group is joined. ξ: configuration not given here. NMeF = CN[C@@H](Cc1ccccc1)C(=O)O; NMeV = CN[C@H](C(=O)O)C(C)C; ξNMeN = CNC(CC(N)=O)C(=O)O; NMeA = CN[C@@H](C)C(=O)O; ξF = NC(Cc1ccccc1)C(=O)O; ξNMeV = CNC(C(=O)O)C(C)C; Cbz = O=C(OCc1ccccc1)*; Boc = CC(C)(C)OC(=O)*; Sar = CNCC(=O)O
Exercise: state measured growth inhibition for each of the molecules provided.

Task: Given CCCCCn1c(=O)c2c(=O)[nH][nH]c2c2ccccc21 , state its recorded growth inhibition.
Result: -22.5% (inactive)

Task: What do you get for CC(=NCc1ccccc1)c1c(C)cc(=O)n(-c2ccccc2)c1O ?
Result: -12% (inactive)

Task: Same read-out for O=C(CCc1ccccc1Cl)CC(=O)CC(O)(c1ccccc1)c1ccccc1 ?
Result: 61.9% (inactive)

Task: Please do the same for COC(=O)[C@H](C)N(C)C(=O)C(CC(N)=O)N(C)C(=O)[C@H](Cc1ccccc1)N(C)C(=O)[C@@H]1CCCN1C(=O)[C@H](C(C)C)N(C)C(=O)C(C(C)C)N(C)C(=O)[C@@H](NC(=O)OC(C)(C)C)C(C)C (stereo partly drawn) (Boc-V[ξNMeV][NMeV]P[NMeF][ξNMeN][NMeA]-OMe) as well.
Result: -5.4% (inactive)

Task: Same question for CCOC(=O)CNC(N)=O please.
Result: 5.2% (inactive)

Task: Next: Cc1cc2cc3oc(C)cc3cc2o1
Result: 3.25% (inactive)

Task: What would you report for COc1cc(Br)c(CC(=O)c2ccc3c(c2)OCO3)cc1OC ?
Result: 15.2% (inactive)

Task: One more molecule: COC(=O)[C@@H]1[C@H](OC(C)=O)CCC2[C@@]3(C[C@@H](c4ccoc4)O[C@@H]3OC)[C@H](C)CC[C@]21C(=O)OC (stereo partly drawn)
Result: -37.5% (inactive)

Task: Quick one: COC(=O)NC(Nc1ccc(C)cc1)(C(F)(F)F)C(F)(F)F
Result: -4.7% (inactive)

Task: Now the molecule COc1ccc(/C=C/C(=O)C(CN(C)C)CN(C)C)cc1OC
Result: -16.4% (inactive)

Task: Entry to check: CN(CC(=O)NC(Cc1ccccc1)C(=O)O)C(=O)OCc1ccccc1 (stereo not drawn) (Cbz-[Sar]-[ξF]-OH)
Result: -10.6% (inactive)

Task: Next entry: O=C1/C(=C/c2ccc(O)c(O)c2)CC/C1=C\c1ccc(O)c(O)c1
Result: -22.6% (inactive)

Task: Next entry: Cc1ccc(N2C(=O)/C(=C/c3ccc(N(CCC#N)CCC#N)cc3)N=C2COc2ccc(Cl)cc2Cl)cc1
Result: -25.9% (inactive)

Task: And O=C(O)/C=C/c1ccc(C(NC(=O)N2C(=O)C=CC2=O)NC(=O)N2C(=O)C=CC2=O)cc1 ?
Result: 19% (inactive)

Task: Again, but for O=C(Nc1ccc(C2=NCCN2)cc1)c1ccc(C(=O)Nc2ccc(C3=NCCN3)cc2)cc1
Result: -19.6% (inactive)

Task: And then COc1ccc(-n2cnc3c(cnn3C3OC(CO)C(O)C3O)c2=O)cc1 (stereo not drawn) , what is it?
Result: 3.3% (inactive)

Task: And the next one, C=Cn1c([N+](=O)[O-])cnc1/C=C/c1ccc(C(=O)OCCN2CCOCC2)cc1 ?
Result: 53% (inactive)

Task: Moving on to the next molecule: Cc1cc(C)c(NC(=O)Nc2ccc(C(Cl)(Cl)Cl)cc2)c(C)c1
Result: 2.8% (inactive)

Task: Now the same for C#CCn1c(=O)c2ccccc2n(CC#C)c1=O
Result: 23.9% (inactive)

Task: Can you handle O=C(Nc1ccccc1O)c1ccc([N+](=O)[O-])cc1 next?
Result: 19.1% (inactive)

Task: Moving on to Cc1cc2c(cc1C)NC1=C(N2)OC(c2cccc(O)c2)C1=O (stereo not drawn)
Result: 11.8% (inactive)

Task: Field entry: CC(C)Nc1nc(N)nc(N)n1
Result: -5.2% (inactive)

Task: Next: CC(=O)/C=C(\O)c1c(C)[nH]c2ccccc12
Result: -5.95% (inactive)

Task: Entry C/C(CCc1ccccc1)=N\Nc1ccc([N+](=O)[O-])cc1[N+](=O)[O-] please
Result: -19.4% (inactive)

Task: Input C=C1C(OC(=O)/C=C/c2ccccc2)CC(OC(C)=O)C2(C)C1CC1CC(OC(C)=O)C(C)=C(C(OC(C)=O)C2OC(C)=O)C1(C)C (stereo not drawn)
Result: 24.5% (inactive)

Task: Can you check O=C(O)/C=C/c1ccccc1C(=O)O next?
Result: 6.05% (inactive)

Task: Moving on to COc1cc(O)c(C(C)=O)c(OC)c1
Result: -2.05% (inactive)

Task: Now this one: CN(CN(C)/N=C/c1cccc([N+](=O)[O-])c1)/N=C\c1cccc([N+](=O)[O-])c1
Result: -14.3% (inactive)
